measured_parameter: melting point

{"compound": "O=C(CN1C(=O)S/C(=C\\c2cccc([N+](=O)[O-])c2)C1=O)Nc1ccc([N+](=O)[O-])cc1 [Compound 26c]", "measured_parameter": "melting point", "value": "264 to 266 °C"}
{"compound": "O=C(CN1C(=O)S/C(=C\\c2ccc([N+](=O)[O-])cc2)C1=O)c1ccccc1 [Compound 16d]", "measured_parameter": "melting point", "value": "232 to 233 °C"}
{"compound": "CCOC(=O)CN1C(=O)S/C(=C\\c2ccccc2[N+](=O)[O-])C1=O [Compound 12b]", "measured_parameter": "melting point", "value": "81 to 83 °C"}

Param item = Cc1ccc(NC(=O)CN2C(=O)S/C(=C\c3ccccc3[N+](=O)[O-])C2=O)cc1 [Compound 24b] ; retrieve measured melting point. 181 to 183 °C

====

measurement_protocol: In vitro cytotoxicity on the human hepatic HepG2 cell line (MTT, 72 h)
condition_summary: human, HepG2 cells (hepatocarcinoma cell line, ATCC HB-8065), HepG2 Cytotoxicity CC50, HepG2, 72 h, MTT
measured_parameter: log10 CC50 at 72 h (log10 of the value in µM)
Hey, these are logged values: log10 of CC50 at 72 h, µM being the unit before logging.

Use these answered entries as a reference point.
{"molecule": "N#CCN1C(=O)S/C(=C\\c2ccc([N+](=O)[O-])cc2)C1=O [Compound 14d]", "log10 CC50 at 72 h": 2.04}
{"molecule": "O=C(CN1C(=O)S/C(=C\\c2ccccc2[N+](=O)[O-])C1=O)Nc1ccccc1Cl [Compound 28b]", "log10 CC50 at 72 h": 1.36}
{"molecule": "O=C(CN1C(=O)S/C(=C\\c2ccccc2[N+](=O)[O-])C1=O)c1ccccc1 [Compound 16b]", "log10 CC50 at 72 h": 1.04}
{"molecule": "O=C1NC(=O)/C(=C/c2ccc([N+](=O)[O-])cc2)S1", "log10 CC50 at 72 h": 2.14}
{"molecule": "O=C(CN1C(=O)S/C(=C\\c2ccccc2[N+](=O)[O-])C1=O)Nc1ccccc1 [Compound 23b]", "log10 CC50 at 72 h": 1.35}

Return reported log10 CC50 at 72 h; argument: O=C(CN1C(=O)S/C(=C\c2ccccc2[N+](=O)[O-])C1=O)Nc1ccc(Cl)cc1 [Compound 27b] 1.54

Continue with COc1ccc(NC(=O)CN2C(=O)S/C(=C\c3ccccc3[N+](=O)[O-])C2=O)cc1 [Compound 25b] 1.37

====

measurement_protocol: Lipophilicity by Chromatographic Hydrophobicity Index (CHI)
Type: physicochemical
condition_summary: pH 7.4, CHI; read-out: CHI logD7.4
measured_parameter: chromatographic logD
// print number alone

What value of chromatographic logD has been reported for the following compound? N#CCN1C(=O)S/C(=C\c2cccc([N+](=O)[O-])c2)C1=O [Compound 14c] 2.85

====

measured_parameter: melting point

{"molecule": "O=C(CN1C(=O)S/C(=C\\c2ccc([N+](=O)[O-])cc2)C1=O)Nc1ccc([N+](=O)[O-])cc1 [Compound 26d]", "melting point": "284 to 285 °C"}
{"molecule": "O=C(CN1C(=O)S/C(=C\\c2ccccc2)C1=O)c1ccccc1 [Compound 16a]", "melting point": "182 to 183 °C"}
{"molecule": "O=C(CN1C(=O)S/C(=C\\c2ccccc2[N+](=O)[O-])C1=O)Nc1ccc(Cl)cc1 [Compound 27b]", "melting point": "188 to 190 °C"}
{"molecule": "N#CCN1C(=O)S/C(=C\\c2ccc([N+](=O)[O-])cc2)C1=O [Compound 14d]", "melting point": "193 to 195 °C"}
{"molecule": "COc1cc(/C=C2\\SC(=O)N(CC(=O)Nc3ccc([N+](=O)[O-])cc3)C2=O)cc(OC)c1OC [Compound 26e]", "melting point": "253 to 254 °C"}
{"molecule": "O=C(CN1C(=O)S/C(=C\\c2cccc([N+](=O)[O-])c2)C1=O)Nc1ccccc1 [Compound 23c]", "melting point": "255 to 257 °C"}
{"molecule": "COc1ccc(NC(=O)CN2C(=O)S/C(=C\\c3ccccc3[N+](=O)[O-])C2=O)cc1 [Compound 25b]", "melting point": "204 to 205 °C"}

Query (molecule): CC(=O)CN1C(=O)S/C(=C\c2ccc([N+](=O)[O-])cc2)C1=O [Compound 13d] ; field requested: melting point 207 to 209 °C

====

The compounds listed here are annotated with their pEC50.
Test system: Leishmania infantum promastigotes
measurement_protocol: In vitro antileishmanial activity on L. infantum promastigotes (MTT, 72 h)
Assay type: cell-based
condition_summary: Leishmania infantum, L. infantum promastigotes, MTT, read-out: Anti-L. infantum Promastigote Activity EC50
# pEC50: negative log10 of molar concentration; output just the value

{"compound": "N#CCN1C(=O)S/C(=C\\c2ccc([N+](=O)[O-])cc2)C1=O [Compound 14d]", "pEC50": 4.61}
{"compound": "O=C(CN1C(=O)S/C(=C\\c2ccccc2[N+](=O)[O-])C1=O)c1ccccc1 [Compound 16b]", "pEC50": 5.25}

What value of measured pEC50 is listed for Cn1c([N+](=O)[O-])cnc1COc1ccc(S(C)(=O)=O)cc1 [Fexinidazole sulfone, reference compound] ? 5.51

====

Measured melting point, listed per entry.

Worked cases, melting point given:
{"molecule": "O=C(CN1C(=O)S/C(=C\\c2cccc([N+](=O)[O-])c2)C1=O)c1ccccc1 [Compound 16c]", "melting point": "160 to 162 °C"}
{"molecule": "COc1cc(/C=C2\\SC(=O)N(CC(N)=O)C2=O)cc(OC)c1OC [Compound 15e]", "melting point": "274 to 275 °C (dec.)"}

Now look at this entry.
If you can, please state the reported melting point value of O=C(CN1C(=O)S/C(=C\c2ccc([N+](=O)[O-])cc2)C1=O)Nc1ccccc1 [Compound 23d] . 259 to 261 °C

====

Consider the following compounds and their measured CC50 at 72 h readings.
measurement_protocol: In vitro cytotoxicity on the human hepatic HepG2 cell line (MTT, 72 h)
condition_summary: human, HepG2 cells (hepatocarcinoma cell line, ATCC HB-8065), HepG2 Cytotoxicity CC50, HepG2, 72 h, MTT
Number in µM, nothing else.

Use the examples below as a reference point.
{"compound": "CCOC(=O)CN1C(=O)S/C(=C\\c2ccccc2[N+](=O)[O-])C1=O [Compound 12b]", "measured_parameter": "CC50 at 72 h", "unit_info": "µM", "value": 39.4}
{"compound": "O=C1NC(=O)/C(=C/c2cccc([N+](=O)[O-])c2)S1", "measured_parameter": "CC50 at 72 h", "unit_info": "µM", "value": 190}
{"compound": "N#CCN1C(=O)S/C(=C\\c2cccc([N+](=O)[O-])c2)C1=O [Compound 14c]", "measured_parameter": "CC50 at 72 h", "unit_info": "µM", "value": 101}

// returns reported CC50 at 72 h for input CCOC(=O)CN1C(=O)S/C(=C\c2ccccc2)C1=O [Compound 12a] 194

====

measurement_protocol: In vitro cytotoxicity on the human hepatic HepG2 cell line (MTT, 72 h)
condition_summary: human, HepG2 cells (hepatocarcinoma cell line, ATCC HB-8065), HepG2 Cytotoxicity CC50, HepG2, 72 h, MTT
The entries below are paired with their reported CC50 at 72 h.

{"compound": "CCOC(=O)CN1C(=O)S/C(=C\\c2cccc([N+](=O)[O-])c2)C1=O [Compound 12c]", "CC50 at 72 h": "101 to 125 µM"}
{"compound": "CCOC(=O)CN1C(=O)S/C(=C\\c2ccc([N+](=O)[O-])cc2)C1=O [Compound 12d]", "CC50 at 72 h": "101 to 125 µM"}
{"compound": "O=C(CN1C(=O)S/C(=C\\c2ccc([N+](=O)[O-])cc2)C1=O)Nc1ccc(Cl)cc1 [Compound 27d]", "CC50 at 72 h": "> 12.5 µM"}
{"compound": "NC(=O)CN1C(=O)S/C(=C\\c2cccc([N+](=O)[O-])c2)C1=O [Compound 15c]", "CC50 at 72 h": "> 62.5 µM"}
{"compound": "O=C(O)CN1C(=O)S/C(=C\\c2cccc([N+](=O)[O-])c2)C1=O [Compound 29]", "CC50 at 72 h": "> 250 µM"}

Report CC50 at 72 h for Cn1c([N+](=O)[O-])cnc1COc1ccc(S(C)(=O)=O)cc1 [Fexinidazole sulfone, reference compound] please. > 200 µM
